assay: NCI Yeast Anticancer Drug Screen. Data for the rad50 strain (AID 155);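 further: 0% = growth of vehicle-only cultures of the same strain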; settings: S. cerevisiae rad50 strain growth inhibition; at 11.0 µM; stronger effect = higher value
Compounds without any hit were thinned out: in the full panel of roughly 79,000, 15% have a hit.
value_type: growth inhibition (%)

> print(dat)
                                    molecule  readout.number
 1          O=C(COC(=O)c1ccccc1)c1ccc(Br)cc1              68
 2  O=[N+]([O-])c1cccc2nc3ccccc3c(NCCCn3ccnc3[N+](=O)[O-])c12              86
 3  CCc1ccc2c(c1)N(CC(C)CN(C)C)c1ccccc1S2 (stereo not drawn)              -1
 4    CN(C)CCNc1ccc2ncnc3c2c1C(=O)c1ccccc1-3              96
 5                   O=C(NCCCl)Sc1ccc(Cl)cc1               7
 6   CC(C)(C)c1ccc(NS(=O)(=O)c2ccc(N)cc2)cc1              14
 7  CCCCCCCCCCCC1N=C(N)NC(CCCO)=C1C(=O)OC (stereo not drawn)              99
 8  CCN(CC)Cc1cc(Nc2c3ccccc3nc3c2[nH]c2ccccc23)cc(CN(CC)CC)c1O              -4
 9  Cc1nc(Nc2ccccc2[N+](=O)[O-])sc1C(=O)CC(=O)C(=O)Nc1c(C(C)C)cccc1C(C)C             -17
10  CC(NCCN(C)C)C1CCC2C3CCc4cc(O)ccc4C3CCC12C (stereo not drawn)              57
11  Cc1cc(N(CCOS(C)(=O)=O)CCOS(C)(=O)=O)ccc1C=Nc1ccc(-c2csc(-c3ccccc3)n2)c(Cl)c1              78
12  CC(=O)OCC(C)Cc1cc2c(cc1Br)OCO2 (stereo not drawn)             -23
13  Cc1nc2c(Br)cc(Br)cc2c(=O)n1-c1ccccc1NC1OCC(O)C(O)C1O (stereo not drawn)              18
14                CN(C)c1ccc(N=Nc2ccncc2)cc1              31
15  CCOC(=O)CC1(C(=O)OCC)c2[nH]c3ccccc3c2CCN1Cc1ccccc1 (stereo not drawn)               5
16          CC1=NOC(=O)/C1=C/c1ccc2c(c1)OCO2              26
17                   O/N=C\c1c(O)ccc2ccccc12              10
18       CCCCOCn1c(=O)[nH]c(=O)c2cc(Br)ccc21             -10

====

test: NCI Yeast Anticancer Drug Screen. Data for the CLN2oe strain (AID 163);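 further: 0% = growth of vehicle-only control cultures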; settings: S. cerevisiae CLN2oe strain, at 33.0 µM
The panel holds about 79,000 compounds, 15% with a hit somewhere; the sample as a whole holds those more often. Active and inactive are the calls of the source. No stated cut-off is given here; in the data, active means growth inhibition above about 70%; inactive means the rest.
Classes used: Yes (active), No (inactive)

> print(dat)
                                    compound  group
 1  COC(=O)C1(C)CCc2c(ccc3ccccc23)C1=O (configuration not stated)     No
 2  CC1SC2(C(=O)Nc3ccc(Cl)cc32)N(c2ccc(Cl)cc2)C1=O (configuration not stated)    Yes
 3  Nc1nc(N)c2nc(CNc3ccc(C(=O)NC(CCC(=O)O)C(=O)O)cc3F)cnc2n1 (configuration not stated)     No
 4  CSc1nc(C)c(CCOC(C)=O)c(N=P(c2ccccc2)(c2ccccc2)c2ccccc2)n1     No
 5        CC(=O)Nc1ccc(/C=C/[N+](=O)[O-])cc1     No
 6           O=Cc1ccc2c(c1)C(=O)c1ccccc1C2=O     No
 7        CN1CCN(C(=O)/C=C/C(=O)c2ccccc2)CC1     No
 8  CN(C)C=NC1CCC(C(C)(C)C)CC1 (configuration not stated)    Yes
 9         CC(C)/C(Cl)=N\OC(=O)Nc1ccc(F)cc1F     No
10        CC1=C(SCc2ccccc2)C(=O)c2ccccc2C1=O     No
11   COC1=C(OC)C(=O)C(Sc2ccc3ccccc3c2)=CC1=O    Yes
12  Cc1ccc([N+]2=NC(c3ccccc3)=NN(c3ccccc3)C2)cc1     No
13  O=C1c2cccnc2C(=O)C2C3C=CC(C3)C12 (configuration not stated)    Yes
14  Cc1nc(-c2cc3cc([N+](=O)[O-])ccc3oc2=O)cs1     No
15  COc1cccc(/C=N/C(/N=C/c2cccc(OC)c2O)c2cccc(OC)c2O)c1O     No
16  COC(=O)CCC(NC(=S)N/N=C(\C)c1ccccn1)C(=O)OC (configuration not stated)     No
17         Cc1ccc(S/C(=C\C(=O)O)c2ccccc2)cc1     No

====

test: NCI Yeast Anticancer Drug Screen. Data for the mec2-1 strain (AID 157); conditions: S. cerevisiae mec2-1 strain, at 50.0 µM (retest, dose inferred, filed as 5.0), stronger effect = higher value
This is part of a sample that, as a whole, favours compounds with a hit. Of some 79,000 tested, about 15% had one in any assay.
value_type: growth inhibition (%)

> print(dat)
                                    compound         value.type  readout.number
 1               Cc1nc2ccc(N=NN(C)C)cc2[nH]1  growth inhibition              98
 2                  O=C(O)Cc1cc(F)ccc1C(=O)O  growth inhibition               2
 3   CC(C)OC(=O)c1ccc(CCc2cc(O)c(Br)cc2O)cc1  growth inhibition              99
 4  O=C(c1ccc([N+](=O)[O-])cc1)C1N=NCC1c1ccccc1 (stereo not given)  growth inhibition              22
 5  CCn1c(O)c(C=Nc2ccccc2)s/c1=N/Nc1nc(-c2ccccc2)cs1  growth inhibition              11
 6                   CCCCCCSc1ncnc2[nH]ncc12  growth inhibition               6
 7      O=C(CSC(=S)N1CCCCC1)Nc1nc2c(s1)CCCC2  growth inhibition              45
 8        CS(=O)(=O)SCc1ccc([N+](=O)[O-])cc1  growth inhibition              96
 9    CC(C)OC(=O)Nc1ccc2nc(-c3cscn3)[nH]c2c1  growth inhibition              23
10  CN(C)[C@@H]1C(=O)C(C(N)=O)=C(O)[C@@]2(O)C(=O)C3=C(O)c4c(O)cccc4C[C@H]3C[C@@H]12  growth inhibition              99
11                O=[N+]([O-])c1cc(Cl)cnc1Br  growth inhibition              70
12  COc1ccc(C2C3=C(COC3=O)OC(C)(C)Oc3cc4c(cc32)OCO4)cc1OC (stereo not given)  growth inhibition              65
13  O=[N+]([O-])c1ccc2c(c1)/C(=N/N=C1c3ccccc3Cc3ccccc31)c1cc([N+](=O)[O-])cc([N+](=O)[O-])c1-2  growth inhibition              96
14  COc1ccc(/C=C2\NC(=S)N(/C=C3\C(=O)Oc4ccccc4C3=O)C2=O)cc1  growth inhibition               1
15  COC(=O)CC1(O)C(/C=C/c2ccccc2)C(C(=O)OC)C(=O)C(C(=O)OC)C1C(=O)OC (stereo not given)  growth inhibition              20
16  CC(=O)Nc1ccc2c(c1)Cc1cc(N=C3C=CC(=O)O3)ccc1-2  growth inhibition              99
17            O=C1C=C(Cl)C(=O)N1c1cccc(Cl)c1  growth inhibition              99
18         c1ccc2cc(NCNc3ccc4ccccc4c3)ccc2c1  growth inhibition              46
19  CNC(=O)OCc1c(COC(=O)NC)c2n(c1C)-c1ccc(OC)cc1CCC2  growth inhibition              99
20  CC1(C)CC(=O)C(/C=N/c2nc(-c3ccccc3)cs2)=C(O)C1  growth inhibition              32
21  O=[N+]([O-])c1ccc(N/N=C/Cc2ccccc2)c([N+](=O)[O-])c1  growth inhibition              12
22             COc1cc(CSc2ccc(O)cc2)cc(O)c1O  growth inhibition              -6
23  CC(C)C(C)/C=C\C(C)C1CCC2C3=CC=C4CC(O)CCC4(C)C3CCC21C (stereo not given)  growth inhibition              99
24                   Oc1ccc(O)c(Cc2ccccc2)c1  growth inhibition              68
25     COc1cc(O)c2c(c1O)C(=O)c1cc(C)ncc1C2=O  growth inhibition              44

Where do the numbers come from? From PubChem BioAssay (NCI).
